Source listed as patent US9963448B2.

biological target: mPAD4 (Mus musculus); assay: mPAD4 RFMS PAD4 inhibition assay; format: biochemical; conditions: mPAD4, RFMS readout; pIC50=−log(IC50); read-out: mPAD4 RFMS pIC50 (converted);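 as to mPAD4 RFMS pIC50: grade E means pIC50 at most 4 and F means pIC50 4.0 to 5.0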
Sequence (Q9Z183 whole entry): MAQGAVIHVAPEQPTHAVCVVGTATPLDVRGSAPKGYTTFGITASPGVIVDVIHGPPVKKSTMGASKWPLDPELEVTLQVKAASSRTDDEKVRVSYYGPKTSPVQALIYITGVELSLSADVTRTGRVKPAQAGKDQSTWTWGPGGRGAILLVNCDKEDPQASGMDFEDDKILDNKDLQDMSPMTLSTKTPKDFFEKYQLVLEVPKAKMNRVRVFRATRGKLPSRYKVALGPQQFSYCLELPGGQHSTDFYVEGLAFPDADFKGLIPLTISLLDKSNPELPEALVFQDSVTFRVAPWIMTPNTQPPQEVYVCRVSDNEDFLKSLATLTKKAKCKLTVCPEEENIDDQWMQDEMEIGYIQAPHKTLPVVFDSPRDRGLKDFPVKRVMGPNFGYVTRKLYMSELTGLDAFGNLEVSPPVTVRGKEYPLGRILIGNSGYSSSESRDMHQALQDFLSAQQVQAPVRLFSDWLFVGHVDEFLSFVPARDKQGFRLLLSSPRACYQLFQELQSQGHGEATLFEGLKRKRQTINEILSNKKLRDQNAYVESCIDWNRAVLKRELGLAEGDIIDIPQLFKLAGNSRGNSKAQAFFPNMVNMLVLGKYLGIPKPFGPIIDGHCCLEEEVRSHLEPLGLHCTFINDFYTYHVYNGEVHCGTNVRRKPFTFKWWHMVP
endpoint: IC50

For orientation, consider the following solved cases.
compound	tgt	result-value
COc1cc(C(=O)N2CCCC3(CNC3)C2)cc2nc(-c3cc4cccnc4n3CC3CC3)n(C)c12 [Compound I-100]	mPAD4 (Mus musculus)	> 100 µM
COc1cc(C(=O)N2CC3(CCOC[C@@H]3N)C2)cc2nc(-c3cc4cccnc4n3CC3CC3)n(C)c12 [Compound I-95]	mPAD4 (Mus musculus)	10 to 100 µM
COCCn1c(-c2nc3cc(C(=O)N4CCC[C@@H](N)C4)ccc3n2C)cc2ccc(OC)nc21 [Compound I-193]	mPAD4 (Mus musculus)	1 to 10 µM
[2H]C([2H])([2H])OC1(C)CC(Cn2c(-c3cc4cccnc4n3CC3CC3)nc3cc(C(=O)N4C[C@H]5CC[C@@H]4[C@@H]5N)cc(OC)c32)C1 (stereo partly shown) [Compound I-238]	mPAD4 (Mus musculus)	< 1 µM
Cn1c(-c2cc3cccnc3n2CC2CC2)nc2cc(C(=O)N3C[C@@H](N)C[C@H](F)C3)cc(OCC(F)F)c21 [Compound I-72]	mPAD4 (Mus musculus)	< 1 µM
CO[C@@H]1CCN(C(=O)c2ccc3c(c2)nc(-c2cc4cccnc4n2CC2CC2)n3C)C[C@@H]1N (single isomer, unassigned) [Compound I-64]	mPAD4 (Mus musculus)	1 to 10 µM
COc1cc(C(=O)N2CCC[C@@H](N)C2)cc2nc(-c3cc4ccc(C(C)(C)O)nc4n3CC3CC3)n(C)c12 [Compound I-211]	mPAD4 (Mus musculus)	< 1 µM
Cn1c(-c2cc3cccnc3n2CC2CC2)nc2cc(C(=O)N3CCC[C@@H](N)C3)cc(OCC(F)(F)F)c21 [Compound I-59]	mPAD4 (Mus musculus)	< 1 µM

Here is the next item to consider.
stdin: Please give the documented IC50 of CCn1c(-c2nc3cc(C(=O)N4C[C@H]5CC[C@@H]4[C@@H]5N)cc(OC)c3n2C[C@H]2C[C@@](C)(O)C2)cc2cccnc21 [Compound I-155]
stdout: < 1 µM

* * *

Quick reference: IC50 of the listed items.
target: hPAD4 (Homo sapiens); assay: hPAD4 RFMS (RapidFire mass spectrometry) PAD4 inhibition assay; assay type: biochemical; conditions: hPAD4 enzyme, RFMS readout; pIC50=−log(IC50); read-out: hPAD4 RFMS pIC50 (converted)

Take a look at these entries with their results.
compound	endpoint	result-value
COc1cc(C(=O)N2CC3CCC2[C@H]3N)cc2nc(-c3cc4cccnc4n3CC3CC3)n(C)c12 (stereo partly shown) [Compound I-31]	IC50	< 1 µM
CCn1c(-c2nc3cc(C(=O)N4CC[C@H]5CCN[C@H]5C4)ccc3n2C)cc2cccnc21 [Compound I-1]	IC50	10 to 100 µM

stdin: Answer with reported IC50 of COc1cc(C(=O)N2C[C@H](N)C[C@@H](F)C2)cc2nc(-c3cc4ccc(C(F)(F)F)nc4n3CC3CC3)n(C)c12 [Compound I-208]
stdout: < 1 µM

stdin: Output measured IC50 for this item: COc1cc(C(=O)N2CC[C@H]3OCCN[C@H]3C2)cc2nc(-c3cc4cccnc4n3CC3CC3)n(C)c12 [Compound I-28]
stdout: < 1 µM

* * *

# Lookup of reported IC50 keyed by entry
molecular target: UniProtKB Q9UM07; assay: hPAD4 RFMS (RapidFire mass spectrometry) PAD4 inhibition assay; type: biochemical; conditions: hPAD4 enzyme, RFMS readout; pIC50=−log(IC50); read-out: hPAD4 RFMS pIC50 (converted)

compound	tgt	IC50
COc1cc(C(=O)N2C[C@H]3CC[C@@H]2[C@@H]3N)cc2nc(-c3cc4cccnc4n3CC3CC3)n(C[C@@H]3CCOC3)c12 [Compound I-232]	UniProtKB Q9UM07	< 1 µM
Cn1c(-c2cc3cncnc3n2CC2CC2)nc2cc(C(=O)N3CCC4CCNC4C3)ccc21 (stereo not shown) [Compound I-9]	UniProtKB Q9UM07	1 to 10 µM
COc1cc(C(=O)N2C[C@@H](N)C[C@H](F)C2)cc2nc(-c3cc4cccnc4n3CC3(C)CC3)n(C)c12 [Compound I-93]	UniProtKB Q9UM07	1 to 10 µM

Now for a further compound.
stdin: Return IC50 (reported value) for this compound: Cn1c(-c2cc3cccnc3n2CC2CC2)nc2cc(C(=O)N3CCC4CCNC4C3)ccc21 (stereo not shown) [Compound I-6]
stdout: 1 to 10 µM

* * *

biological target: hPAD4 (Homo sapiens, UniProt Q9UM07); experiment: hPAD4 RFMS (RapidFire mass spectrometry) PAD4 inhibition assay; assay type: biochemical; conditions: hPAD4 enzyme, RFMS readout; read-out: hPAD4 RFMS IC50
Sequence (Q9UM07 whole entry): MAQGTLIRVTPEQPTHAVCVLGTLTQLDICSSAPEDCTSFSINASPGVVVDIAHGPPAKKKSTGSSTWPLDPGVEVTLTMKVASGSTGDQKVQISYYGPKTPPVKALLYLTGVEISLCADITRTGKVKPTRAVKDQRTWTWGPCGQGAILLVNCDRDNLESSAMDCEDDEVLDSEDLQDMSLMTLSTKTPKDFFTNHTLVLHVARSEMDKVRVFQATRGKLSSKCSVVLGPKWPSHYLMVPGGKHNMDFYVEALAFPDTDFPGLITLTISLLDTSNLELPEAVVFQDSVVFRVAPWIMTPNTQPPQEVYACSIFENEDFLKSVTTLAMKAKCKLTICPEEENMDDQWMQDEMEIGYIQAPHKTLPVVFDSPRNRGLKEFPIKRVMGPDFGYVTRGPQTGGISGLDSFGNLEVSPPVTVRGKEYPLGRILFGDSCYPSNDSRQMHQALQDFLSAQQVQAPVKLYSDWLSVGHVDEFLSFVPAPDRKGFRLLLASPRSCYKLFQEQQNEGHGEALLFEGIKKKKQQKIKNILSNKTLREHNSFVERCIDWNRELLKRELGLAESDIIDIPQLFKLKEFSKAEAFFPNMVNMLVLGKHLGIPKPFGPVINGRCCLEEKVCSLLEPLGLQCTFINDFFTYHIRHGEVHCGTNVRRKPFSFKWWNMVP
pIC50: −log10 of the molar value.
pIC50 for assorted compounds

Example cases with answers are listed next.
compound	pIC50
Cn1c(-c2cc3ccccc3n2CC2CC2)nc2cc(C(=O)N3CC[C@H]4CCN[C@H]4C3)ccc21	> 6.00
COc1cc(C(=O)N2C[C@H]3CCC2[C@H]3N)cc2nc(-c3cc4ccc(/C=C/Cc5ccccc5)cc4n3CC3CC3)n(C)c12	> 6.00
CCn1c(-c2nc3cc(C(=O)N4CCC[C@@H](N)C4)cc(OC)c3n2CC2CCOCC2)cc2cccnc21	5.30 to 6.00

stdin: For the compound COc1ccc2cc(-c3nc4cc(C(=O)N5C[C@@H](N)C[C@H](F)C5)cc(OC)c4n3C)n(CC3CC3)c2n1 , report pIC50.
stdout: > 6.00

* * *

target: hPAD4 (Homo sapiens, UniProt Q9UM07); assay: hPAD4 RFMS (RapidFire mass spectrometry) PAD4 inhibition assay; format: biochemical; details: hPAD4 enzyme, RFMS readout; pIC50=−log(IC50); read-out: hPAD4 RFMS pIC50 (converted);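 as to hPAD4 RFMS pIC50: grade E means pIC50 at most 4 and F means pIC50 4.0 to 5.0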
endpoint: IC50

compound	IC50
CCn1c(-c2nc3cc(C(=O)N4C[C@H]5CC[C@@H]4[C@@H]5N)cc(OC)c3n2C)cc2ccc(C)nc21	< 1000 nM

stdin: Write down IC50 measured for item COc1cc(C(=O)N2C[C@H]3CC[C@@H]2[C@@H]3N)cc2nc(-c3cc4cccnc4n3CC3CC3)n([C@H]3C[C@@H](F)C3)c12
stdout: < 1000 nM

stdin: Query IC50 for COc1cc(C(=O)N2CC3CCC2C3N)cc2nc(-c3cc4cccnc4n3CC3CC3)n(C)c12 (stereo not drawn)
stdout: < 1000 nM

stdin: Provide IC50 value for the following compound: CCn1c(-c2nc3cc(C(=O)N4CCC[C@@H](N)C4)ccc3n2CCOC)cc2cccnc21
stdout: 1000 to 10000 nM

stdin: Tell us which IC50 value is on record for COc1cc(C(=O)N2C[C@H]3CCC2[C@H]3N)cc2nc(-c3cc4ccc(C5=Cc6ccccc6C5)cc4n3CC3CC3)n(C)c12
stdout: < 1000 nM

stdin: Give the reported value of IC50 for this record: CCn1c(-c2nc3cc(C(=O)N4CCC[C@@H](N)C4)cc(OC)c3n2C)cc2ccc(C(F)(F)F)nc21
stdout: < 1000 nM

stdin: Identify measured IC50 associated with COc1cc(C(=O)N2CC3(CCCNC3)C2)cc2nc(-c3cc4cccnc4n3CC3CC3)n(C)c12
stdout: 1000 to 10000 nM

stdin: Supply recorded IC50 for CCn1c(-c2nc3cc(C(=O)N4C[C@H]5CC[C@@H]4[C@@H]5N)cc(OC)c3n2C)cc2ccc(C(F)(F)F)nc21 here.
stdout: < 1000 nM

stdin: For the compound CN[C@@H]1[C@@H]2CC[C@H]1N(C(=O)c1cc(OC)c3c(c1)nc(-c1cc4cccnc4n1CC1CC1)n3C)C2 , report IC50.
stdout: 10000 to 100000 nM

stdin: Please report the measured IC50 for COc1cc(C(=O)N2C[C@H]3CC[C@@H]2[C@@H]3N)cc2nc(-c3cc4cc(F)cnc4n3CC3CC3)n(C)c12
stdout: < 1000 nM

* * *

Each record here notes measured IC50.
molecular target: UniProt:Q9UM07; experiment: hPAD4 RFMS (RapidFire mass spectrometry) PAD4 inhibition assay; type: biochemical; conditions: hPAD4 enzyme, RFMS readout; pIC50=−log(IC50); read-out: hPAD4 RFMS pIC50 (converted)

stdin: Determine from records and report IC50 for COc1cc(C(=O)N2CCC[C@@H](N)C2)cc2nc(-c3cc4ccc(C(C)(C)O)nc4n3CC3CC3)n(C)c12
stdout: < 1 µM

* * *

Reported pIC50 values are given for each entry in this list.
target: mPAD4 (Mus musculus); experiment: mPAD4 RFMS PAD4 inhibition assay; format: biochemical; details: mPAD4, RFMS readout; read-out: mPAD4 RFMS IC50
pIC50: −log10 of the molar value. Counter-ions that a name gives are not always drawn.

compound	pIC50
COc1cc(C(=O)N2C[C@@H]3[C@@H](N)[C@@H]3C2)cc2nc(-c3cc4cccnc4n3CC3CC3)n(C)c12	< 5.00
CCc1ccc2cc(-c3nc4cc(C(=O)N5CCC[C@@H](N)C5)cc(OC)c4n3CC)n(CC3CC3)c2n1	> 6.00
COc1cc(C(=O)N2CCC(F)C(N)C2)cc2nc(-c3cc4cccnc4n3CC3CC3)n(C)c12 (centres unmarked) [Compound I-56]	5.30 to 6.00
COc1cc(C(=O)N2C[C@H]3CC[C@@H]2[C@@H]3N)cc2nc(-c3cc4cccnc4n3CC3CC3)n(CCS(C)(=O)=O)c12	5.30 to 6.00
COc1ccc2cc(-c3nc4cc(C(=O)N5CCC[C@@H](N)C5)ccc4n3C)n(CC3CC3)c2n1	> 6.00

stdin: Give pIC50; test system mPAD4 (Mus musculus); compound COc1cc(C(=O)N2C[C@@H]3CC[C@H]2[C@H](N)C3)cc2nc(-c3cc4cccnc4n3CC3CC3)n(C)c12
stdout: < 5.00

stdin: Please report the measured pIC50 for COc1cc(C(=O)N2C[C@H]3CC[C@@H]2[C@@H]3N)cc2nc(-c3cc4cnc(C)nc4n3CC3CC3)n(C)c12 tested on mPAD4 (Mus musculus).
stdout: 5.30 to 6.00

stdin: System mPAD4 (Mus musculus). Read-out pIC50. Item CN[C@@H]1C[C@@H](O)CN(C(=O)c2cc(OC)c3c(c2)nc(-c2cc4cccnc4n2CC2CC2)n3C)C1 (racemic) [Compound I-77, hydrochloride] . Report value.
stdout: < 5.00

stdin: State recorded pIC50 with mPAD4 (Mus musculus), entry Cn1c(-c2cc3cccnc3n2CC2CC2)nc2cc(C(=O)N3CCC[C@@H](N)C3)cc(F)c21 , no comment.
stdout: 5.30 to 6.00

stdin: Report value only: pIC50, mPAD4 (Mus musculus), COc1ccc2cc(-c3nc4cc(C(=O)N5C[C@H]6CC[C@@H]5[C@@H]6N)cc(F)c4n3C)n(CC3CC3)c2n1
stdout: > 6.00

stdin: Enter measured pIC50, system mPAD4 (Mus musculus), for the compound shown: CCn1c(-c2cc3cccnc3n2CC2CC2)nc2cc(C(=O)N3CC[C@@H]4CCN[C@@H]4C3)cc(OC)c21
stdout: 5.30 to 6.00

stdin: Give pIC50; test system mPAD4 (Mus musculus); compound COc1ccc2cc(-c3nc4cc(C(=O)N5C[C@H](N)C[C@@H](F)C5)cc(OC)c4n3C)n(CC3CC3)c2n1
stdout: > 6.00

stdin: Provide pIC50, tested on mPAD4 (Mus musculus), for CCn1c(-c2nc3cc(C(=O)N4C[C@H]5CC[C@@H]4[C@@H]5N)cc(OC)c3n2C)cc2ccc(OC(F)F)nc21 .
stdout: > 6.00

stdin: Provide pIC50, recorded with mPAD4 (Mus musculus), of COc1cc(C(=O)N2CC3CCC2C3N)cc2nc(-c3cc4cccnc4n3CC3CC3)n(C)c12 (centres unmarked)
stdout: > 6.00
